Reported Emax by item:
- targetOrTestSystem: SIRT1 (Homo sapiens, UniProt Q96EB6)
- Sequence (Q96EB6 1-747): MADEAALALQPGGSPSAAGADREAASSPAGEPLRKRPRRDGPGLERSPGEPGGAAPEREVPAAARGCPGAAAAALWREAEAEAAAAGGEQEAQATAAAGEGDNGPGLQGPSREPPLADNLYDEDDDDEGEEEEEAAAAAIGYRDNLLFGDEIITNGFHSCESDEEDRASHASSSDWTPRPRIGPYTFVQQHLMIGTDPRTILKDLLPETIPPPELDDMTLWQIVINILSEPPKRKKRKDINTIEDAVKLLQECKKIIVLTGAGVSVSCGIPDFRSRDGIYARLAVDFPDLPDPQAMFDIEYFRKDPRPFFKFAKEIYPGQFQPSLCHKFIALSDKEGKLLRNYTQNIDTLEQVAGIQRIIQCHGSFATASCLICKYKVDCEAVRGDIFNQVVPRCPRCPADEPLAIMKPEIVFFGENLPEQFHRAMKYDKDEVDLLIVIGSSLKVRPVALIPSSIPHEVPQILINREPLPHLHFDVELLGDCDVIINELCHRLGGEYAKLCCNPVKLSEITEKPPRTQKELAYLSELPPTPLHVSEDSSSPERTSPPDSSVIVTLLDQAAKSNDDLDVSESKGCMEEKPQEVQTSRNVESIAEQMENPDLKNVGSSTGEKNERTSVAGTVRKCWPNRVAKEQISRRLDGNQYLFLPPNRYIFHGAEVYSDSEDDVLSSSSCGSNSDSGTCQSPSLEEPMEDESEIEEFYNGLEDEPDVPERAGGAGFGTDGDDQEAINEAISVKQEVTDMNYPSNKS
- assayInfo: Mass spectrometry based SIRT1 deacetylation (activation) assay
- Type: biochemical
- experimentalContext: 25 min, 0.5 μM peptide substrate, 120 μM βNAD+, 10 nM SIRT1, 25 min at 25° C., read-out: % Fold Act. (percent maximum fold activation)
- From the text: A mass spectrometry based assay was used to identify modulators of SIRT1 activity. The mass spectrometry based assay utilizes a peptide having 20 amino acid residues as follows: Ac-EE-K(biotin)-GQSTSSHSK(Ac)NleSTEG-K(5TMR)-EE-NH2 (SEQ ID NO: 1) wherein K(Ac) is an acetylated lysine residue and Nle is a norleucine. The peptide is labeled with the fluorophore 5TMR (excitation 540 nm/emission 580 nm) at the C-terminus. The sequence of the peptide substrate is based on p53 with several modifications. […]

Would you please look over these solved cases?
>  <smilesInput>
CCN(CCN(C)C)c1cc(C(=O)Nc2ccccc2C(=O)NC2CCCC2)nc(-c2ccccc2)n1

>  <targetOrTestSystem>
SIRT1 (Homo sapiens, UniProt Q96EB6)

>  <assayEndpoint>
Emax

>  <result>
≥ 300%

$$$$
>  <smilesInput>
CN(C)CCNc1cc(C(=O)Nc2ccccc2-c2ncc(C(C)(C)C)s2)nc(-c2ccccc2)c1

>  <targetOrTestSystem>
SIRT1 (Homo sapiens, UniProt Q96EB6)

>  <assayEndpoint>
Emax

>  <result>
≥ 300%

$$$$
>  <smilesInput>
CCN(CCN(C)C)c1cc(C(=O)Nc2ccccc2C(=O)NC2CC2)nc(-c2ccccc2)n1

>  <targetOrTestSystem>
SIRT1 (Homo sapiens, UniProt Q96EB6)

>  <assayEndpoint>
Emax

>  <result>
150 to 300%

$$$$
>  <smilesInput>
CNC(=O)c1ccccc1NC(=O)c1cc(NCCN(C)C)nc(-c2ccccc2)n1

>  <targetOrTestSystem>
SIRT1 (Homo sapiens, UniProt Q96EB6)

>  <assayEndpoint>
Emax

>  <result>
≥ 300%

$$$$
>  <smilesInput>
CC(=O)c1ccccc1NC(=O)c1cc(NC2CCN(C(C)C)CC2)nc(-c2ccccc2)n1

>  <targetOrTestSystem>
SIRT1 (Homo sapiens, UniProt Q96EB6)

>  <assayEndpoint>
Emax

>  <result>
≥ 300%

$$$$

Qu. Entry Cc1csc(-c2ccccc2NC(=O)c2cc(NCCN(C)C)nc(-c3ccccc3)n2)n1 has what Emax?
Ans. ≥ 300%

Qu. Next molecule up: COC(=O)c1ccccc1NC(=O)c1cc(NCCN(C)C)nc(-c2ccccc2)n1
Ans. ≥ 300%

Qu. // query: CCCc1nnc(-c2ccccc2NC(=O)c2cc(NCCN(C)C)nc(-c3ccccc3)n2)s1
Ans. 150 to 300%
